# targetUnderTest: LTB-4 receptor (Homo sapiens)
# Construct: to intact human neutrophils; endogenous in cells
# Sequence (Q15722 whole entry): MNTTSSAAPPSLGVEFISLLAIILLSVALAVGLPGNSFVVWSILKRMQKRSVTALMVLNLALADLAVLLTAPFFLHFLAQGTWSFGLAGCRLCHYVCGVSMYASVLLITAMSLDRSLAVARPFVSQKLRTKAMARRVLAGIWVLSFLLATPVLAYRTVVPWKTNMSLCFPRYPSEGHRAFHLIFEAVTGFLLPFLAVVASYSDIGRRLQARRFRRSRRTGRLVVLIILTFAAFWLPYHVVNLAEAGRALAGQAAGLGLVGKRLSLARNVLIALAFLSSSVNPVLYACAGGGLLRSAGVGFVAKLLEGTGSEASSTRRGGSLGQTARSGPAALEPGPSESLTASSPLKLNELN
# assayProcedure: LTB-4 receptor binding assay: binding of [H^3]-LTB-4 to intact human neutrophils
# experimentalContext: [H^3]-LTB-4, intact human neutrophils
// values below are reported IC50

{"compound": "CCN(CC)C(=O)/C=C(\\C)c1ccc(OCc2c(F)cccc2F)c(OCC(=O)O)c1 [Example 2y]", "IC50": "~48 nM"}
{"compound": "CCN(CC)C(=O)/C=C(\\C)c1ccc(OC(C)c2ccccc2)c(CC(=O)O)c1 (stereo not drawn) [Example 8b]", "IC50": "~74 nM"}

Let us examine a further case.
*Q* Find the measured IC50: item CCN(CC)C(=O)/C=C(\C)c1ccc(OCc2c(F)cccc2F)c(CC(=O)O)c1 [Example 8a] , target or system LTB-4 receptor (Homo sapiens).
*A* ~87 nM
